Experiment: in vivo
Assay Setup: both, beagle, dog, iv, t1/2
Assay Metric: half-life (min)
Hi! Could you send only the number? It should be in min, unit omitted.

Q: Looking for the measured half-life of CC(C)C[C@H](NC(=O)CNC(=O)[C@H](C)NC(=O)[C@H](CC(=O)O)NC(=O)[C@H](CC(=O)O)NC(=O)[C@H](C)NC(=O)[C@@H]1CCCN1C(=O)[C@H](CCCCN)NC(=O)CNC(=O)[C@@H]1CCCN1C(=O)[C@@H]1CCCN1C(=O)[C@@H]1CCCN1C(=O)[C@H](CCC(=O)O)NC(=O)CN)C(=O)N[C@H](C(=O)O)C(C)C [BPC157] , can you help?
A: 5.27

====

Experiment: Pharmacokinetics of BPC157 in beagle dogs after intravenous and intramuscular administration (plasma)
Assay Setup: both, beagle, dog, plasma, iv, 6 μg/kg
Assay Metric: clearance (mL/min/kg)
Entry rule: numbers only, all in mL/min/kg.

Q: Given CC(C)C[C@H](NC(=O)CNC(=O)[C@H](C)NC(=O)[C@H](CC(=O)O)NC(=O)[C@H](CC(=O)O)NC(=O)[C@H](C)NC(=O)[C@@H]1CCCN1C(=O)[C@H](CCCCN)NC(=O)CNC(=O)[C@@H]1CCCN1C(=O)[C@@H]1CCCN1C(=O)[C@@H]1CCCN1C(=O)[C@H](CCC(=O)O)NC(=O)CN)C(=O)N[C@H](C(=O)O)C(C)C , state its recorded clearance.
A: 90.8

====

Experiment: Pharmacokinetics of BPC157 in SD rats after intravenous and intramuscular administration (plasma, LC-MS/MS)
Assay Setup: both, Sprague-Dawley, rat, plasma, im, 20 μg/kg
Assay Metric: AUC(0-t)
Write the numeric value and follow it with the unit.

Q: So what does the record say about AUC(0-t) for CC(C)C[C@H](NC(=O)CNC(=O)[C@H](C)NC(=O)[C@H](CC(=O)O)NC(=O)[C@H](CC(=O)O)NC(=O)[C@H](C)NC(=O)[C@@H]1CCCN1C(=O)[C@H](CCCCN)NC(=O)CNC(=O)[C@@H]1CCCN1C(=O)[C@@H]1CCCN1C(=O)[C@@H]1CCCN1C(=O)[C@H](CCC(=O)O)NC(=O)CN)C(=O)N[C@H](C(=O)O)C(C)C ?
A: 1.25 ng·h/mL

====

Experiment: Pharmacokinetics of BPC157 in SD rats after intravenous and intramuscular administration (plasma, LC-MS/MS)
Assay Setup: both, Sprague-Dawley, rat, plasma, im, 500 μg/kg
Assay Metric: Cmax
Form entry: enter the amount, then its unit.

Q: I would be grateful if you could share the reported Cmax for CC(C)C[C@H](NC(=O)CNC(=O)[C@H](C)NC(=O)[C@H](CC(=O)O)NC(=O)[C@H](CC(=O)O)NC(=O)[C@H](C)NC(=O)[C@@H]1CCCN1C(=O)[C@H](CCCCN)NC(=O)CNC(=O)[C@@H]1CCCN1C(=O)[C@@H]1CCCN1C(=O)[C@@H]1CCCN1C(=O)[C@H](CCC(=O)O)NC(=O)CN)C(=O)N[C@H](C(=O)O)C(C)C .
A: 141 ng/mL

====

Experiment: Pharmacokinetics of BPC157 in beagle dogs after intravenous and intramuscular administration (plasma)
Assay Setup: both, beagle, dog, plasma, im, 6 μg/kg
Assay Metric: MRT
Reply with the number and its unit after it.

Q: Consider the compound shown here: CC(C)C[C@H](NC(=O)CNC(=O)[C@H](C)NC(=O)[C@H](CC(=O)O)NC(=O)[C@H](CC(=O)O)NC(=O)[C@H](C)NC(=O)[C@@H]1CCCN1C(=O)[C@H](CCCCN)NC(=O)CNC(=O)[C@@H]1CCCN1C(=O)[C@@H]1CCCN1C(=O)[C@@H]1CCCN1C(=O)[C@H](CCC(=O)O)NC(=O)CN)C(=O)N[C@H](C(=O)O)C(C)C [BPC157] What is its recorded MRT?
A: 25.8 min

====

Experiment: Pharmacokinetics of BPC157 in beagle dogs after intravenous and intramuscular administration (plasma)
Assay Setup: both, beagle, dog, plasma, im, 30 μg/kg
Assay Metric: MRT (min)
Numbers only; they are read as min.

Q: I would be grateful if you could share the reported MRT for CC(C)C[C@H](NC(=O)CNC(=O)[C@H](C)NC(=O)[C@H](CC(=O)O)NC(=O)[C@H](CC(=O)O)NC(=O)[C@H](C)NC(=O)[C@@H]1CCCN1C(=O)[C@H](CCCCN)NC(=O)CNC(=O)[C@@H]1CCCN1C(=O)[C@@H]1CCCN1C(=O)[C@@H]1CCCN1C(=O)[C@H](CCC(=O)O)NC(=O)CN)C(=O)N[C@H](C(=O)O)C(C)C .
A: 37

====

Experiment: Pharmacokinetics of BPC157 in beagle dogs after intravenous and intramuscular administration (plasma)
Assay Setup: both, beagle, dog, plasma, im, 150 μg/kg
Assay Metric: AUC(0-inf) (µg·h/mL)
Report only the number, with the unit µg·h/mL understood.

Q: What value of AUC(0-inf) has been reported for the following compound? CC(C)C[C@H](NC(=O)CNC(=O)[C@H](C)NC(=O)[C@H](CC(=O)O)NC(=O)[C@H](CC(=O)O)NC(=O)[C@H](C)NC(=O)[C@@H]1CCCN1C(=O)[C@H](CCCCN)NC(=O)CNC(=O)[C@@H]1CCCN1C(=O)[C@@H]1CCCN1C(=O)[C@@H]1CCCN1C(=O)[C@H](CCC(=O)O)NC(=O)CN)C(=O)N[C@H](C(=O)O)C(C)C [BPC157]
A: 0.0138

====

Experiment: Pharmacokinetics of BPC157 in SD rats after intravenous and intramuscular administration (plasma, LC-MS/MS)
Assay Setup: both, Sprague-Dawley, rat, plasma, im, 20 μg/kg
Assay Metric: Tmax (min)
Write the answer as a number in min, unit excluded.

Q: Fill blank: measured Tmax of the molecule CC(C)C[C@H](NC(=O)CNC(=O)[C@H](C)NC(=O)[C@H](CC(=O)O)NC(=O)[C@H](CC(=O)O)NC(=O)[C@H](C)NC(=O)[C@@H]1CCCN1C(=O)[C@H](CCCCN)NC(=O)CNC(=O)[C@@H]1CCCN1C(=O)[C@@H]1CCCN1C(=O)[C@@H]1CCCN1C(=O)[C@H](CCC(=O)O)NC(=O)CN)C(=O)N[C@H](C(=O)O)C(C)C is ____.
A: 3

====

Experiment: Pharmacokinetics of BPC157 in beagle dogs after intravenous and intramuscular administration (plasma)
Assay Setup: both, beagle, dog, plasma, im, 6 μg/kg
Assay Metric: bioavailability (%)
Answer in %, number only, no unit symbol.

Q: What bioavailability value was documented for this molecule, CC(C)C[C@H](NC(=O)CNC(=O)[C@H](C)NC(=O)[C@H](CC(=O)O)NC(=O)[C@H](CC(=O)O)NC(=O)[C@H](C)NC(=O)[C@@H]1CCCN1C(=O)[C@H](CCCCN)NC(=O)CNC(=O)[C@@H]1CCCN1C(=O)[C@@H]1CCCN1C(=O)[C@@H]1CCCN1C(=O)[C@H](CCC(=O)O)NC(=O)CN)C(=O)N[C@H](C(=O)O)C(C)C ?
A: 45.3

====

Experiment: Pharmacokinetics of BPC157 in SD rats after intravenous and intramuscular administration (plasma, LC-MS/MS)
Assay Setup: both, Sprague-Dawley, rat, plasma, im, 500 μg/kg
Assay Metric: AUC(0-t) (µg·h/mL)
Your answer is read as µg·h/mL, so omit the unit and give the number.

Q: Look up AUC(0-t): CC(C)C[C@H](NC(=O)CNC(=O)[C@H](C)NC(=O)[C@H](CC(=O)O)NC(=O)[C@H](CC(=O)O)NC(=O)[C@H](C)NC(=O)[C@@H]1CCCN1C(=O)[C@H](CCCCN)NC(=O)CNC(=O)[C@@H]1CCCN1C(=O)[C@@H]1CCCN1C(=O)[C@@H]1CCCN1C(=O)[C@H](CCC(=O)O)NC(=O)CN)C(=O)N[C@H](C(=O)O)C(C)C [BPC157]
A: 0.0322

====

Experiment: Pharmacokinetics of BPC157 in SD rats after intravenous and intramuscular administration (plasma, LC-MS/MS)
Assay Setup: both, Sprague-Dawley, rat, plasma, iv, 20 μg/kg
Assay Metric: AUC(0-inf) (ng·h/mL)
Field: numeric (ng·h/mL). Do not append units.

Q: Which AUC(0-inf) is listed for CC(C)C[C@H](NC(=O)CNC(=O)[C@H](C)NC(=O)[C@H](CC(=O)O)NC(=O)[C@H](CC(=O)O)NC(=O)[C@H](C)NC(=O)[C@@H]1CCCN1C(=O)[C@H](CCCCN)NC(=O)CNC(=O)[C@@H]1CCCN1C(=O)[C@@H]1CCCN1C(=O)[C@@H]1CCCN1C(=O)[C@H](CCC(=O)O)NC(=O)CN)C(=O)N[C@H](C(=O)O)C(C)C ?
A: 6.67

====

Experiment: Pharmacokinetics of BPC157 in beagle dogs after intravenous and intramuscular administration (plasma)
Assay Setup: both, beagle, dog, plasma, im, 30 μg/kg
Assay Metric: AUC(0-inf) (ng·h/mL)
Quick note: give the figure in ng·h/mL, leave out the unit.

Q: Query: AUC(0-inf); subject: CC(C)C[C@H](NC(=O)CNC(=O)[C@H](C)NC(=O)[C@H](CC(=O)O)NC(=O)[C@H](CC(=O)O)NC(=O)[C@H](C)NC(=O)[C@@H]1CCCN1C(=O)[C@H](CCCCN)NC(=O)CNC(=O)[C@@H]1CCCN1C(=O)[C@@H]1CCCN1C(=O)[C@@H]1CCCN1C(=O)[C@H](CCC(=O)O)NC(=O)CN)C(=O)N[C@H](C(=O)O)C(C)C [BPC157]
A: 2.73
